# half-life listing for each entry below
Assay: Pharmacokinetics in mice (i.v. and p.o.)
Type: in vivo, male CD-1 mice
Settings: male, CD-1, mouse, in vivo, iv, 1 mg/kg
Report the figure in min without appending any unit label.

Please review the following examples before continuing.
| testSmiles | resultUnits | half-life |
| --- | --- | --- |
| Cn1cccc(-c2cc(NCc3ccc(Cl)s3)n(C(=O)c3ccoc3)n2)c1=O | min | 30 |
| O=C(c1ccoc1)n1nc(-c2cccn(Cc3ccccn3)c2=O)cc1NCc1ccc(Cl)s1 | min | 18 |
| O=C(c1ccoc1)n1nc(-c2ccc[nH]c2=O)cc1NCc1ccc(Cl)s1 | min | 60 |

Note: attention shifts to another entry.
# half-life of "O=C(c1ccoc1)n1nc(-c2cccn(Cc3ccco3)c2=O)cc1NCc1ccc(Cl)s1" = 18

* * *

Biological target: Human KLKB1 (Homo sapiens (Human))
Sequence (P03952 391-638 limits assumed): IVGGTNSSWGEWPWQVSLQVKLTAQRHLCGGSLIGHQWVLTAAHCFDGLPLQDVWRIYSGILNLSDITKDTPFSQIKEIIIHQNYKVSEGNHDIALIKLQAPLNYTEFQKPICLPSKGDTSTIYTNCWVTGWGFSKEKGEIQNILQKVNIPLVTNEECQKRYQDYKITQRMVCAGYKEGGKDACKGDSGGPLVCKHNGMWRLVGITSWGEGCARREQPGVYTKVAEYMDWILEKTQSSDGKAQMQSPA
Sequence (P03952 20-390 partner limits assumed): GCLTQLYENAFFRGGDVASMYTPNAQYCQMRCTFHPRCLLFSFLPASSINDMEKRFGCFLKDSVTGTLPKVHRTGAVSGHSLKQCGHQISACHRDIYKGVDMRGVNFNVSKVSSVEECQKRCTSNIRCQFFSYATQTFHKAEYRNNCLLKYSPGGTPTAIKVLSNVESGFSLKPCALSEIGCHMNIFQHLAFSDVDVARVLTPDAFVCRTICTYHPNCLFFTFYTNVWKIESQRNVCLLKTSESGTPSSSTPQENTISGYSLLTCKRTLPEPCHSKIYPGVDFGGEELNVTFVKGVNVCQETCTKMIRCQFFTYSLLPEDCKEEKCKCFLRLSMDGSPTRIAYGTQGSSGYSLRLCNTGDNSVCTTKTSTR
Assay: KLKB1 kallikrein activity inhibition assay (chromogenic substrate S-2302)
Format: biochemical
Details: Table C
Protocol: The KLKB1 kallikrein activity reported herein (e.g., Tables B, C, and D) was obtained as follows. Human KLKB1 protein was obtained from Enzyme Research Labs. […] KLKB1 was assayed in buffer containing 0.05 M Tris (pH 7.4), 0.01 M NaCl and 0.2% w/v PEG-8000. […] Inhibitor IC50 values were determined by adding test compound as ten point, three-fold serial dilutions in buffer solution, as known in the art. The plate was read at 10 minutes after substrate addition. […]
measuredAttribute: IC50

| testSmiles | IC50 |
| --- | --- |
| CCC(=O)n1nc(-c2ccccn2)nc1NCc1ccc(OC)cc1 | 10 to 100 µM |
| O=C(Cc1ccccc1)n1nc(-c2cccnc2)nc1NCc1ccc(F)cc1 | 1 to 10 µM |
| COc1ccccc1C(=O)n1nc(-c2ccccc2)nc1NCc1nccs1 | > 100 µM |
| CC(C)(C)C(=O)n1nc(-c2ccccn2)nc1NCc1ccccc1 | 10 to 100 µM |
| O=C(c1ccsc1)n1nc(-c2cccnc2)nc1NCc1ccc(F)cc1 | 0.1 to 1 µM |
| CC(C)CC(=O)n1nc(-c2cccnc2)nc1NCc1ccc(F)cc1 | 10 to 100 µM |

# IC50 of "O=C(c1cccs1)n1nc(-c2ccccn2)nc1NCc1ccc(F)cc1" = 1 to 10 µM

# IC50 of "O=C(c1ccsc1)n1nc(-c2ccncc2)nc1NCc1ccccc1" = 0.1 to 1 µM

# IC50 of "COc1ccc(CNc2nc(-c3cccnc3)nn2C(=O)c2ccccc2)cc1" = 1 to 10 µM

* * *

Experiment: Pharmacokinetics in mice (i.v. and p.o.)
Type: in vivo, male CD-1 mice
Settings: male, CD-1, mouse, in vivo, po, 5 mg/kg
measuredAttribute: AUC (ng·h/mL)
Report the figure in ng·h/mL without appending any unit label.

Please review the following examples before continuing.
| molecule | resultUnits | AUC |
| --- | --- | --- |
| Cn1cccc(-c2cc(NCc3ccc(Cl)s3)n(C(=O)c3ccoc3)n2)c1=O [Cmpd 23] | ng·h/mL | 80 |
| O=C(c1ccoc1)n1nc(-c2cccn(Cc3ccco3)c2=O)cc1NCc1ccc(Cl)s1 [Cmpd 26] | ng·h/mL | 20 |
| O=C(c1ccoc1)n1nc(-c2ccc[nH]c2=O)cc1NCc1ccc(Cl)s1 [Cmpd 4] | ng·h/mL | 300 |

Note: attention shifts to another entry.
# AUC of O=C(c1ccoc1)n1nc(-c2cccn(Cc3ccccn3)c2=O)cc1NCc1ccc(Cl)s1 [Cmpd 25] = 10

* * *

Test: Pharmacokinetics in mice (i.v. and p.o.)
Assay type: in vivo, male CD-1 mice
Conditions: mouse, plasma, iv; male CD-1 mice, single i.v. dose 1 mg/kg, dose type A (5% dimethyl acetamide, tetraethylene glycol); read-out: i.v. AUC
measuredAttribute: AUC (ng·h/mL)
Report the figure in ng·h/mL without appending any unit label.

# AUC of "CC(C)(C)C(=O)n1nc(C2CCNCC2)c(F)c1NCc1ccc(Cl)s1" = 200

* * *

# IC50 listing for each entry below
Biological target: Human KLKB1 (Homo sapiens (Human))
Test: KLKB1 kallikrein activity inhibition assay (chromogenic substrate S-2302)
Type: biochemical
Conditions: Table C

| compound | IC50 |
| --- | --- |
| O=C(c1ccoc1)n1nc(-c2ccccn2)nc1NCc1ccccc1 | > 100 µM |
| COc1ccc(CNc2nc(-c3cccnc3)nn2C(=O)C(C)(C)C)cc1 | > 100 µM |

# IC50 of "O=C(CCc1ccccc1)n1nc(-c2ccccn2)nc1NCc1ccc(F)cc1" = 10 to 100 µM

# IC50 of "CC(C)(C)OC(=O)n1nc(-c2cccnc2)nc1NCc1ccc(F)cc1" = > 100 µM

# IC50 of "CCCC(=O)n1nc(-c2cccnc2)nc1NCc1ccc(F)cc1" = 10 to 100 µM

# IC50 of "O=C(c1ccsc1)n1nc(-c2ccncc2)nc1NCc1ccc(F)cc1" = 1 to 10 µM

* * *

# pIC50 listing for each entry below
Biological target: Human thrombin (Homo sapiens (Human), UniProt P00734)
Test: Thrombin protease activity inhibition assay (chromogenic substrate S-2238)
Format: biochemical
Settings: 3 nM thrombin, 125 μM S-2238, 10 min pre-incubation, RT
Protocol: The thrombin activity reported herein (e.g., Table A) was obtained as follows. […] Thrombin was assayed in buffer containing 0.05 M Tris (pH 7.4), 0.015 M NaCl and 0.01% PEG-8000. The final concentration of enzyme used was 3 nM thrombin. […] Inhibitor IC50 values were determined by adding test compound as ten point, three-fold serial dilutions in buffer solution, as known in the art. The plate was read at 10 minutes after substrate addition. […]
pIC50: −log10 of the molar value.

Please review the following examples before continuing.
| testSmiles | target | measuredResult |
| --- | --- | --- |
| COc1ccc(C(=O)n2nc(-c3cccn(Cc4ncccn4)c3=O)cc2NCc2ccc(Cl)s2)c(OC)c1 | Human thrombin (Homo sapiens (Human), UniProt P00734) | < 4.00 |
| O=C(c1ccco1)n1nc(-c2cccn(CCN3CCOCC3)c2=O)cc1NCc1ccc(Cl)s1 | Human thrombin (Homo sapiens (Human), UniProt P00734) | < 4.00 |
| CC1(C(=O)n2nc(-c3cccn(Cc4ccco4)c3=O)cc2NCc2ccc(Cl)s2)CCOCC1 | Human thrombin (Homo sapiens (Human), UniProt P00734) | > 7.00 |
| O=C(c1ccsc1)n1nc(-c2cccn(Cc3ncccn3)c2=O)cc1NCc1ccc(Cl)s1 | Human thrombin (Homo sapiens (Human), UniProt P00734) | > 7.00 |

# pIC50 of "COc1ccccc1C(=O)n1nc(-c2ccc[nH]c2=O)cc1NCc1ccc(Cl)s1" = > 7.00

# pIC50 of "O=C(c1cccc2c1OCCO2)n1nc(-c2cccn(Cc3ccncc3)c2=O)cc1NCc1ccc(Cl)s1" = > 7.00

# pIC50 of "O=C(Cn1cccc(-c2cc(NCc3ccc(Cl)s3)n[nH]2)c1=O)N1CCOCC1" = 5.00 to 6.00

# pIC50 of "Cn1cccc(-c2cc(NCc3ccc(Cl)s3)n(C(=O)C(C)(C)C)n2)c1=O" = > 7.00

# pIC50 of "CC(C)(C)C(=O)n1nc(-c2cccn(Cc3cccnn3)c2=O)cc1NCc1ccc(Cl)s1" = > 7.00

* * *

Molecular target: Recombinant human tissue kallikrein (KLK1) (Homo sapiens (Human), UniProt P06870)
Sequence (P06870 25-262): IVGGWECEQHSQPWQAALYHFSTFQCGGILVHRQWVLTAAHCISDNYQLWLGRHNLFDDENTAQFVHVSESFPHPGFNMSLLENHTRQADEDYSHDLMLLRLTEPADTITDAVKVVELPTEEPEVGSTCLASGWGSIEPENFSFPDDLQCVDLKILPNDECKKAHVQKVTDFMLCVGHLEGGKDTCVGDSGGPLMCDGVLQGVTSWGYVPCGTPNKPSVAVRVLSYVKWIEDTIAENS
Assay: KLK1 kallikrein activity inhibition assay (Pro-Phe-Arg-AMC substrate)
Format: biochemical
Conditions: Table B
Method: The KLK1 kallikrein activity reported herein (e.g., Tables B and C) was obtained as follows. Recombinant human tissue kallikrein (KLK1) was obtained from R&D Systems. […] Substrate activation is read 10 minutes after substrate addition using a Synergy H1 multifunction plate reader (Biotek) programmed with a 360 nm excitation wavelength and a 480 nm emission wavelength. […]
pIC50: −log10 of the molar value.
measuredAttribute: pIC50

Please review the following examples before continuing.
| compound | measuredAttribute | measuredResult |
| --- | --- | --- |
| O=C(c1ccoc1)n1nc(-c2cccn(Cc3ccccn3)c2=O)cc1NCc1ccc(Cl)s1 [Cmpd 25] | pIC50 | 4.00 to 5.00 |
| Cn1cccc(-c2cc(NCc3ccc(Cl)s3)n(C(=O)c3ccoc3)n2)c1=O [Cmpd 23] | pIC50 | 4.00 to 5.00 |
| CC(C)(C)C(=O)n1nc(-c2cccn(Cc3cccnn3)c2=O)cc1NCc1ccc(Cl)s1 [Cmpd 81] | pIC50 | < 4.00 |
| O=C(c1ccc(N2CCOCC2)cc1)n1nc(-c2cccn(Cc3cccnc3)c2=O)cc1NCc1ccc(Cl)s1 [Cmpd 213] | pIC50 | < 4.00 |

# pIC50 of COCCn1cccc(-c2cc(NCc3ccc(Cl)s3)n(C(=O)C3(C)CCOCC3)n2)c1=O [Cmpd 149] = < 4.00

# pIC50 of O=C(c1ccoc1)n1nc(C2CCOCC2)c(F)c1NCc1ccc(Cl)s1 [Cmpd 294] = < 4.00
